Assay method text: Oral bioavailability in rat
Format: ADME, organism-based
Condition summary: in vivo

# Chemical string, bioavailability (%)
records = [
    ("CC(C)n1cc(-c2ccc(C#N)c(F)c2)c2ccc(NS(C)(=O)=O)cc21", 31.4),
]

* * *

Measured target: UniProt:P06401
Assay method text: Antagonist activity at human progesterone receptor expressed in HEK293 cells assessed as inhibition of […]-induced transcriptional activity by GRE-driven luciferase reporter gene assay relative to untreated control
Type: functional, cell-based
Set-up: concentration or dose not given beside the values
Condition summary: concentration not given here
inhibition values by entry

# Compound, inhibition [%]
records = [
    ("C[C@](c1ccc(F)cc1F)(c1c[nH]c2c(NS(C)(=O)=O)cccc12)C1CC1", 94.5),
    ("CC[C@@H](C)n1cc(-c2ccc(C#N)cc2)c2ccc(NS(C)(=O)=O)cc21", 96.2),
    ("CCn1cc(-c2ccc(C#N)cc2)c2ccc(NS(C)(=O)=O)cc21", 97),
    ("COc1ccc(C(c2ccccc2)c2c[nH]c3ccccc23)cc1 (configuration not stated)", 86.5),
    ("CC(C)n1cc(-c2ccc(C#N)c(F)c2)c2ccc(NS(C)(=O)=O)cc21", 94.9),
    ("CC(C)n1cc(-c2ccc(C#N)cc2)c2ccc(NS(C)(=O)=O)cc21", 96.2),
    ("C[C@@](c1ccc(F)cc1F)(c1c[nH]c2c(NS(C)(=O)=O)cccc12)C1CC1", 89.7),
    ("Cc1cc(-c2cn(C(C)C)c3cc(NS(C)(=O)=O)ccc23)ccc1C#N", 95.8),
    ("CC[C@H](C)n1cc(-c2ccc(C#N)cc2)c2ccc(NS(C)(=O)=O)cc21", 96.8),
    ("CC(c1ccc(F)cc1)(c1c[nH]c2c(NS(C)(=O)=O)cccc12)C1CC1 (configuration not stated)", 91.7),
    ("Cn1cc(-c2ccc(C#N)cc2)c2ccc(NS(C)(=O)=O)cc21", 87.8),
    ("COc1cc(-c2cn(C(C)C)c3cc(NS(C)(=O)=O)ccc23)ccc1C#N", 97.4),
]

* * *

inhibition values by entry
Measured target: Mineralocorticoid receptor (Homo sapiens)
Assay method text: Antagonist activity at human mineralocorticoid receptor expressed in HEK293 cells assessed as inhibition of […]-induced transcriptional activity by GRE-driven luciferase reporter gene assay relative to untreated control
Assay type: functional, cell-based
Set-up: concentration or dose not given beside the values
Condition summary: concentration not given here
Attribute measured: inhibition (%)

# Molecule, Measured target, Attribute measured, Measurement units, Observed
data = [
    ("CC(C)n1cc(-c2ccc(C#N)c(F)c2)c2ccc(NS(C)(=O)=O)cc21", "Mineralocorticoid receptor (Homo sapiens)", "inhibition", "%", 50.2),
    ("CC(C)n1cc(-c2ccc(C#N)cc2)c2ccc(NS(C)(=O)=O)cc21", "Mineralocorticoid receptor (Homo sapiens)", "inhibition", "%", 36.6),
    ("C[C@@](c1ccc(F)cc1F)(c1c[nH]c2c(NS(C)(=O)=O)cccc12)C1CC1", "Mineralocorticoid receptor (Homo sapiens)", "inhibition", "%", 62.9),
    ("CCn1cc(-c2ccc(C#N)cc2)c2ccc(NS(C)(=O)=O)cc21", "Mineralocorticoid receptor (Homo sapiens)", "inhibition", "%", 23.8),
    ("C[C@](c1ccc(F)cc1F)(c1c[nH]c2c(NS(C)(=O)=O)cccc12)C1CC1", "Mineralocorticoid receptor (Homo sapiens)", "inhibition", "%", 87),
    ("Cc1cc(-c2cn(C(C)C)c3cc(NS(C)(=O)=O)ccc23)ccc1C#N", "Mineralocorticoid receptor (Homo sapiens)", "inhibition", "%", 56),
    ("COc1ccc(C(c2ccccc2)c2c[nH]c3ccccc23)cc1 (configuration not stated)", "Mineralocorticoid receptor (Homo sapiens)", "inhibition", "%", 40.8),
    ("Cn1cc(-c2ccc(C#N)cc2)c2ccc(NS(C)(=O)=O)cc21", "Mineralocorticoid receptor (Homo sapiens)", "inhibition", "%", -2.2),
    ("CC(c1ccc(F)cc1)(c1c[nH]c2c(NS(C)(=O)=O)cccc12)C1CC1 (configuration not stated)", "Mineralocorticoid receptor (Homo sapiens)", "inhibition", "%", 76.3),
    ("CC[C@H](C)n1cc(-c2ccc(C#N)cc2)c2ccc(NS(C)(=O)=O)cc21", "Mineralocorticoid receptor (Homo sapiens)", "inhibition", "%", 43.4),
    ("COc1cc(-c2cn(C(C)C)c3cc(NS(C)(=O)=O)ccc23)ccc1C#N", "Mineralocorticoid receptor (Homo sapiens)", "inhibition", "%", 35.8),
    ("CC[C@@H](C)n1cc(-c2ccc(C#N)cc2)c2ccc(NS(C)(=O)=O)cc21", "Mineralocorticoid receptor (Homo sapiens)", "inhibition", "%", 39.2),
]

* * *

Measured target: Mineralocorticoid receptor (Homo sapiens)
Sequence (P08235 whole entry): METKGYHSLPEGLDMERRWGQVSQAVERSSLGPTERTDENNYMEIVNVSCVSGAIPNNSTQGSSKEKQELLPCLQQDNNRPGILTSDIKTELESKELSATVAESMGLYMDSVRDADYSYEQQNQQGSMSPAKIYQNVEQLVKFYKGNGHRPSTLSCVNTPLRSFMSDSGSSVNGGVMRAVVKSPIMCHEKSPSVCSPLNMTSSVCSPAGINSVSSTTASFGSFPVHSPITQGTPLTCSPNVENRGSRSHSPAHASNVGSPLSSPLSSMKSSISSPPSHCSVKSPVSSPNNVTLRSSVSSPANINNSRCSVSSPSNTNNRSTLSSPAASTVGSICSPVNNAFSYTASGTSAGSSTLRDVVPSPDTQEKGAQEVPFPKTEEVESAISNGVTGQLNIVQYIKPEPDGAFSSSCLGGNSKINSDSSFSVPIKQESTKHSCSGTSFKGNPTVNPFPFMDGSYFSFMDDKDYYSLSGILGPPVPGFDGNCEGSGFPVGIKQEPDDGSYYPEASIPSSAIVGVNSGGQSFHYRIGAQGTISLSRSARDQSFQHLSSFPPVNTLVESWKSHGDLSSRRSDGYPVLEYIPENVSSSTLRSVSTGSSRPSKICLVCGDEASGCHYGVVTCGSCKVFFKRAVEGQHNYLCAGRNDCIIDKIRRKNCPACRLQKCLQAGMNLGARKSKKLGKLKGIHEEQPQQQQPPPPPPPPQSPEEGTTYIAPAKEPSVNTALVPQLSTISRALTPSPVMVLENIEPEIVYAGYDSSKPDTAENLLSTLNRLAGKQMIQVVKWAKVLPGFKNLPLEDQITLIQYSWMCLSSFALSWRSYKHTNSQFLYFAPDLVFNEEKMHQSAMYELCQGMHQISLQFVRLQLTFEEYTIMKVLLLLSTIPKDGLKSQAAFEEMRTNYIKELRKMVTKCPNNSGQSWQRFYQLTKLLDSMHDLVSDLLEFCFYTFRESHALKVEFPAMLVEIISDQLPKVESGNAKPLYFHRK
pKi: −log10 of the molar value.
pKi values by entry
Attribute measured: pKi

# Compound, Reading qualifier, Observed
records = [
    ("CC[C@@H](C)n1cc(-c2ccc(C#N)cc2)c2ccc(NS(C)(=O)=O)cc21", "=", 5.84),
    ("CC(c1ccc(F)cc1)(c1c[nH]c2c(NS(C)(=O)=O)cccc12)C1CC1 (configuration not stated)", "=", 9.19),
    ("COc1cc(-c2cn(C(C)C)c3cc(NS(C)(=O)=O)ccc23)ccc1C#N", "=", 5.86),
    ("CC[C@H](C)n1cc(-c2ccc(C#N)cc2)c2ccc(NS(C)(=O)=O)cc21", "=", 6.00),
    ("CC(C)n1cc(-c2ccc(C#N)c(F)c2)c2ccc(NS(C)(=O)=O)cc21", "=", 6.07),
    ("Cn1cc(-c2ccc(C#N)cc2)c2ccc(NS(C)(=O)=O)cc21", "<", 5.38),
    ("COc1ccc(C(c2ccccc2)c2c[nH]c3ccccc23)cc1 (configuration not stated)", "=", 7.06),
]

* * *

Measured target: Progesterone receptor (Homo sapiens, UniProt P06401)
Sequence (P06401 whole entry): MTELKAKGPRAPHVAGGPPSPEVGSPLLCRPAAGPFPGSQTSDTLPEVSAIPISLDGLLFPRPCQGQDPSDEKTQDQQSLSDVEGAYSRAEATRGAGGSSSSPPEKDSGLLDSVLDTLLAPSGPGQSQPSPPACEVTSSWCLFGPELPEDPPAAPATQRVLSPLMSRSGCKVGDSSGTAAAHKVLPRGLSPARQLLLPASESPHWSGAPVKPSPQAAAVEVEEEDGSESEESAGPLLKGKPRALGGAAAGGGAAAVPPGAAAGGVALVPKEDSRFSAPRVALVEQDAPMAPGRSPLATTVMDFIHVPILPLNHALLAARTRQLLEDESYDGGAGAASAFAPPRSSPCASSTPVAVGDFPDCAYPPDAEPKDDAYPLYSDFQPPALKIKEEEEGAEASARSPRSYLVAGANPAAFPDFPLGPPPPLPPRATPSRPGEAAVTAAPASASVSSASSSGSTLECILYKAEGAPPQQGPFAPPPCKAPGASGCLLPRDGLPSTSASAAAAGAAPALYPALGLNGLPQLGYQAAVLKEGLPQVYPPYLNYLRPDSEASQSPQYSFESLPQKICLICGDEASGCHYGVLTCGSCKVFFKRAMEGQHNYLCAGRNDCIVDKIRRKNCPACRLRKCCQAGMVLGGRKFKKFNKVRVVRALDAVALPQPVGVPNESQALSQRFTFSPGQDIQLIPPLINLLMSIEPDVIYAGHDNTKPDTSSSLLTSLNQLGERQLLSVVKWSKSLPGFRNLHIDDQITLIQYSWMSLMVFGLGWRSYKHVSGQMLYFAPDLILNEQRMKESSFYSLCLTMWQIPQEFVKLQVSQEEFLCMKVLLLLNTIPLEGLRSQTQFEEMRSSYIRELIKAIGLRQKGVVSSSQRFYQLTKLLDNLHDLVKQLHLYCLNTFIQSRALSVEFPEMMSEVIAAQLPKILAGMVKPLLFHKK
Assay method text: Antagonist activity at human progesterone receptor expressed in HEK293 cells assessed as inhibition of […]-induced transcriptional activity by GRE-driven luciferase reporter gene assay
pIC50: −log10 of the molar value.
So basically: pIC50 at 6 or higher? That is fulfilled. Lower than 6? That is not fulfilled.

# Compound, Label value
rows = [
    ("Cn1cc(-c2ccc(C#N)cc2)c2ccc(NS(C)(=O)=O)cc21", "fulfilled"),
    ("COc1cc(-c2cn(C(C)C)c3cc(NS(C)(=O)=O)ccc23)ccc1C#N", "fulfilled"),
    ("Cc1cc(-c2cn(C(C)C)c3cc(NS(C)(=O)=O)ccc23)ccc1C#N", "fulfilled"),
    ("CC[C@@H](C)n1cc(-c2ccc(C#N)cc2)c2ccc(NS(C)(=O)=O)cc21", "fulfilled"),
    ("CC[C@H](C)n1cc(-c2ccc(C#N)cc2)c2ccc(NS(C)(=O)=O)cc21", "fulfilled"),
    ("COc1ccc(C(c2ccccc2)c2c[nH]c3ccccc23)cc1 (configuration not stated)", "not fulfilled"),
]
